Listed here are compounds together with their documented MIC.
System: Escherichia coli
Experiment: Antibacterial activity against Escherichia coli ATCC 25922 assessed as bacterial growth inhibition incubated for 24 hrs by broth microdilution method
Assay type: functional
Quick reminder: number only, in µM, skip the unit.

>>> obs_value("Clc1ccc2c3ccccc3n(-c3nccc(-n4cncn4)n3)c2c1")
740
>>> obs_value("Cc1cn(-c2ccnc(N(CCO)CCO)n2)cn1")
1950
>>> obs_value("OCCN(CCO)c1nccc(-n2cnc3cc(Br)ccc32)n1")
1360
>>> obs_value("Cc1cn(-c2nccc(N(CCO)CCO)n2)cn1")
1950
>>> obs_value("Cc1cn(-c2ccnc(N(CCO)CCO)n2)c(C)n1")
924

Request: Consider the compound CC(=O)N1CCN(c2nccc(-n3cncn3)n2)CC1 and give its measured MIC.
Result: 4

Request: Consider the compound O=C(CCl)N1CCN(c2nccc(-n3cncn3)n2)CC1 and give its measured MIC.
Result: 104

Request: Consider the compound CC(=O)Nc1ccc(S(=O)(=O)N2CCN(c3nccc(-n4cncn4)n3)CC2)cc1 and give its measured MIC.
Result: 598

Request: Consider the compound Cc1nc2ccccc2n1-c1ccnc(N(CCO)CCO)n1 and give its measured MIC.
Result: 817

###

Tested on: Enterococcus faecalis
Experiment: Antibacterial activity against Enterococcus faecalis assessed as bacterial growth inhibition incubated for 24 hrs by broth microdilution method
Format: functional
Listed here are compounds together with their documented MIC.
Quick reminder: number only, in µM, skip the unit.

>>> obs_value("OCCN(CCO)c1nccc(-n2cnc3cc(Br)ccc32)n1")
679
>>> obs_value("O=C(C(Cl)Cl)N1CCN(c2nccc(-n3cncn3)n2)CC1")
705
>>> obs_value("Cc1cn(-c2ccnc(N(CCO)CCO)n2)cn1")
973
>>> obs_value("O=C1c2cccc3c(N4CCN(c5nccc(-n6cncn6)n5)CC4)ccc(c23)C(=O)N1CCO")
545
>>> obs_value("CN(C)c1nccc(-n2cncn2)n1")
1350

Request: Lab note: need MIC with Enterococcus faecalis for entry CCCc1nccn1-c1nccc(N(CCO)CCO)n1 , please look it up.
Result: 879

Request: Lab note: need MIC with Enterococcus faecalis for entry Cc1cn(-c2ccnc(N(CCO)CCO)n2)c(C)n1 , please look it up.
Result: 924

Request: Lab note: need MIC with Enterococcus faecalis for entry OCCN(CCO)c1nccc(-n2cnc3ccccc32)n1 , please look it up.
Result: 107

Request: Lab note: need MIC with Enterococcus faecalis for entry OCCN(CCO)c1nccc(-n2cncn2)n1 , please look it up.
Result: 8

Request: Lab note: need MIC with Enterococcus faecalis for entry O=C(CCl)N1CCN(c2nccc(-n3cncn3)n2)CC1 , please look it up.
Result: 417

Request: Lab note: need MIC with Enterococcus faecalis for entry O=S(=O)(c1ccc(F)cc1)N1CCN(c2nccc(-n3cncn3)n2)CC1 , please look it up.
Result: 658

Request: Lab note: need MIC with Enterococcus faecalis for entry CC(C)c1nccn1-c1nccc(N(CCO)CCO)n1 , please look it up.
Result: 1790

###

Assay: MRT (0 to t) in Kunming mouse at 10 mg/kg, po measured upto 24 hrs by LC-MS analysis
Format: ADME, organism-based
Settings: in vivo
measured.parameter: MRT last at 24 h

Request: Consider the molecule OCCN(CCO)c1nccc(-n2cncn2)n1 and give its measured MRT last at 24 h.
Result: 3.97 h
